System: RXRa homodimer (NR concentration 180 nM)
Test: PBM binding z-score (relative to random genomic background probes); higher = stronger binding; sequences stand for … in GC…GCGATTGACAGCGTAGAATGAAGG
Kindly return Y if reported PBM binding z-score is no lower than 0.8; return N if it is lower.

Q: Reported PBM binding z-score at or above 0.8? `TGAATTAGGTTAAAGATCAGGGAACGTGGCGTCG`
Result: Y

Q: Reported PBM binding z-score at or above 0.8? `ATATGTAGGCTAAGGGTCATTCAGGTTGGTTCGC`
Result: Y

Q: Reported PBM binding z-score at or above 0.8? `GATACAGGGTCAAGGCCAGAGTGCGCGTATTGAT`
Result: Y

Q: Reported PBM binding z-score at or above 0.8? `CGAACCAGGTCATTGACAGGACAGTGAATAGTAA`
Result: Y

Q: Reported PBM binding z-score at or above 0.8? `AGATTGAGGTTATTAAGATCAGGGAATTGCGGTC`
Result: Y

Q: Reported PBM binding z-score at or above 0.8? `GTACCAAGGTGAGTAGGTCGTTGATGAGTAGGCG`
Result: N

Q: Reported PBM binding z-score at or above 0.8? `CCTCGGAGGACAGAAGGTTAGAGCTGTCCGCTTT`
Result: N

Q: Reported PBM binding z-score at or above 0.8? `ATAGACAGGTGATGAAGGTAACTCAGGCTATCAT`
Result: N

Q: Reported PBM binding z-score at or above 0.8? `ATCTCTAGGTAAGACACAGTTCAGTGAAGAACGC`
Result: N

Q: Reported PBM binding z-score at or above 0.8? `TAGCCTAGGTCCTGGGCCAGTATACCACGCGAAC`
Result: N

Q: Reported PBM binding z-score at or above 0.8? `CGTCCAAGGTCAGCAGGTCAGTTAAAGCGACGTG`
Result: Y

Q: Reported PBM binding z-score at or above 0.8? `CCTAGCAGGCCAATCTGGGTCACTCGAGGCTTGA`
Result: N

Q: Reported PBM binding z-score at or above 0.8? `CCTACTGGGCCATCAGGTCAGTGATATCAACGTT`
Result: N

Q: Reported PBM binding z-score at or above 0.8? `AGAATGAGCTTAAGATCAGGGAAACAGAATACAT`
Result: N

Q: Reported PBM binding z-score at or above 0.8? `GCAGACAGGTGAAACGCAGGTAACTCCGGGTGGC`
Result: N

Q: Reported PBM binding z-score at or above 0.8? `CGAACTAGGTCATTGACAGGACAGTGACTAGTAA`
Result: Y

Q: Reported PBM binding z-score at or above 0.8? `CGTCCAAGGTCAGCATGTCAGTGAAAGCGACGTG`
Result: Y

Q: Reported PBM binding z-score at or above 0.8? `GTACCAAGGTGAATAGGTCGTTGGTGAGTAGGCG`
Result: Y

Q: Reported PBM binding z-score at or above 0.8? `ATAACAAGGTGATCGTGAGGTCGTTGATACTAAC`
Result: Y

Q: Reported PBM binding z-score at or above 0.8? `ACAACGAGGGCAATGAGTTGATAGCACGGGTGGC`
Result: Y

Q: Reported PBM binding z-score at or above 0.8? `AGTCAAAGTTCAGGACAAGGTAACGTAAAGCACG`
Result: Y

Q: Reported PBM binding z-score at or above 0.8? `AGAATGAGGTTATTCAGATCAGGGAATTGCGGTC`
Result: Y

Q: Reported PBM binding z-score at or above 0.8? `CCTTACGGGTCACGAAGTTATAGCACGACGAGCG`
Result: Y

Q: Reported PBM binding z-score at or above 0.8? `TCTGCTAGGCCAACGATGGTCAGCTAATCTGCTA`
Result: N

Q: Reported PBM binding z-score at or above 0.8? `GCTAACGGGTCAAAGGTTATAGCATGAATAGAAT`
Result: Y

Q: Reported PBM binding z-score at or above 0.8? `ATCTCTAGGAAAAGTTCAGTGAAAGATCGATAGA`
Result: N

Q: Reported PBM binding z-score at or above 0.8? `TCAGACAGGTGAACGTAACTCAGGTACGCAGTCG`
Result: Y

Q: Reported PBM binding z-score at or above 0.8? `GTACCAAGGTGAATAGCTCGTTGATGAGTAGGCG`
Result: N

Q: Reported PBM binding z-score at or above 0.8? `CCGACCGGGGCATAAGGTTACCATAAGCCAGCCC`
Result: Y

Q: Reported PBM binding z-score at or above 0.8? `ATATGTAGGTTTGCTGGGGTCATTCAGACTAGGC`
Result: Y

Q: Reported PBM binding z-score at or above 0.8? `CCTAGTTGGTCAGGAGGTAACACACCGGATATGA`
Result: N

Q: Reported PBM binding z-score at or above 0.8? `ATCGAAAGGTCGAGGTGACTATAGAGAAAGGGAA`
Result: Y

Q: Reported PBM binding z-score at or above 0.8? `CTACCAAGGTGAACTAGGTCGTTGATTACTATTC`
Result: Y

Q: Reported PBM binding z-score at or above 0.8? `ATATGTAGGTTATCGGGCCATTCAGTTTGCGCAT`
Result: Y

Q: Reported PBM binding z-score at or above 0.8? `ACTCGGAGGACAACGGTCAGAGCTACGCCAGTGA`
Result: N

Q: Reported PBM binding z-score at or above 0.8? `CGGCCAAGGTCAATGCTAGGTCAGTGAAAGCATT`
Result: Y

Q: Reported PBM binding z-score at or above 0.8? `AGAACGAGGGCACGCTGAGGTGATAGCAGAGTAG`
Result: Y

Q: Reported PBM binding z-score at or above 0.8? `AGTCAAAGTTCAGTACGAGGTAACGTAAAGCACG`
Result: Y

Q: Reported PBM binding z-score at or above 0.8? `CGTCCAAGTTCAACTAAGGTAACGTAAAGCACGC`
Result: Y

Q: Reported PBM binding z-score at or above 0.8? `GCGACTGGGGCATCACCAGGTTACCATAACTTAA`
Result: N

Q: Reported PBM binding z-score at or above 0.8? `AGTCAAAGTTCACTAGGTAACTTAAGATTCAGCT`
Result: Y

Q: Reported PBM binding z-score at or above 0.8? `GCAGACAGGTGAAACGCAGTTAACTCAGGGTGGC`
Result: N

Q: Reported PBM binding z-score at or above 0.8? `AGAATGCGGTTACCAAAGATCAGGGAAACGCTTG`
Result: N

Q: Reported PBM binding z-score at or above 0.8? `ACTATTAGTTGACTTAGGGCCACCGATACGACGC`
Result: N

Q: Reported PBM binding z-score at or above 0.8? `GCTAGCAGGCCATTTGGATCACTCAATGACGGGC`
Result: N

Q: Reported PBM binding z-score at or above 0.8? `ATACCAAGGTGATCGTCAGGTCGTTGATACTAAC`
Result: Y

Q: Reported PBM binding z-score at or above 0.8? `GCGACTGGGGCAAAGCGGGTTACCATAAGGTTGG`
Result: N

Q: Reported PBM binding z-score at or above 0.8? `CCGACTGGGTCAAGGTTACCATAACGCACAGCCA`
Result: Y

Q: Reported PBM binding z-score at or above 0.8? `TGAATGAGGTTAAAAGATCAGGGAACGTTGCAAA`
Result: Y

Q: Reported PBM binding z-score at or above 0.8? `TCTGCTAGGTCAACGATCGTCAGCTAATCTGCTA`
Result: Y
